Each record here notes measured pKi.
Target: PDK-1 (Homo sapiens)
Sequence (O15530 1-556): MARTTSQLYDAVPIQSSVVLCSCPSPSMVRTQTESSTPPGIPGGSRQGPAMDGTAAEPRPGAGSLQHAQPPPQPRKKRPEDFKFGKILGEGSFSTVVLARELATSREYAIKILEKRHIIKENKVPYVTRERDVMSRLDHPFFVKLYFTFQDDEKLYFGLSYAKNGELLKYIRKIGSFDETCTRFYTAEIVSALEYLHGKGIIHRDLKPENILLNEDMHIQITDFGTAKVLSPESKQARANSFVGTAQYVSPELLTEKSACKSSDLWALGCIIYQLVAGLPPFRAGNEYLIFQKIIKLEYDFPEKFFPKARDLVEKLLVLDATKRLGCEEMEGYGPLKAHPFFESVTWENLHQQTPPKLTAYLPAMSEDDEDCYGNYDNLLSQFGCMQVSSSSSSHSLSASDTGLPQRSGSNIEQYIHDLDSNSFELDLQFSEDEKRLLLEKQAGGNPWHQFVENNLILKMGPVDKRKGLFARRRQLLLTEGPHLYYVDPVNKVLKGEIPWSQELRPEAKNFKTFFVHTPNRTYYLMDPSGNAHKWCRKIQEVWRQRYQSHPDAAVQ
pKi: −log10 of the molar value.

Recorded pKi, per entry:
NCC[C@@H](C(=O)Nc1ccc2[nH]nc(NC(=O)c3cccc(Cl)c3)c2c1)c1cccc(Cl)c1F [Compound I-177] | 5.52 to 6.00
COc1ccccc1C(CCN)C(=O)Nc1ccc2[nH]ncc2c1 (stereo not drawn) [Compound I-113] | < 5.52
NCCC(C(=O)Nc1ccc2[nH]nc(NC(=O)c3ccc(-c4ccccc4)cc3)c2c1)c1ccc(Cl)c(Cl)c1 (stereo not drawn) [Compound I-172] | > 6.00

// moving on: another record for pKi
Item O=C(Nc1ccc2[nH]ncc2c1)C1(c2ccccc2)CCNCC1 [Compound I-156] : provide pKi
< 5.52

====

molecular target: AKT-3 (Homo sapiens)
Sequence (Q9Y243 whole entry): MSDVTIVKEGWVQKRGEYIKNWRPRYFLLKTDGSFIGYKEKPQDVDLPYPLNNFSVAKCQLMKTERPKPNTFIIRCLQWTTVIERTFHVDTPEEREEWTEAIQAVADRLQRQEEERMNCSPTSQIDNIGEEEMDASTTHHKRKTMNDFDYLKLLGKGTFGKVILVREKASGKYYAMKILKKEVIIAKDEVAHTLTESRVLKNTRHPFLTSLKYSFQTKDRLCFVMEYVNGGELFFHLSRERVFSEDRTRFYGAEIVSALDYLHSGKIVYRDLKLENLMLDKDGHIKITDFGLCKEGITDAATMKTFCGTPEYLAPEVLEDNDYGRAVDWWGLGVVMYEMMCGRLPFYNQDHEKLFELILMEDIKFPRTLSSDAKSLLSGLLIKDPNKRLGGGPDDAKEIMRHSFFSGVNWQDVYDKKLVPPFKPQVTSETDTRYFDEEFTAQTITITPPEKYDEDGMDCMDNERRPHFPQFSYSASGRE
pKi: −log10 of the molar value.
Test Readout: pKi

Item NCCC(C(=O)Nc1ccc2[nH]nc(-c3cccc(OC(F)(F)F)c3)c2c1)c1ccc(Cl)c(Cl)c1 (stereo not shown) : provide pKi
> 6.00

Item NCCNC(C(=O)Nc1ccc2[nH]ncc2c1)c1ccc(Oc2ccccc2)c(Cl)c1 (stereo not shown) : provide pKi
5.00 to 6.00

Item NCCC(C(=O)Nc1ccc2[nH]nc(CCc3ccccc3)c2c1)c1ccc(Cl)c(Cl)c1 (stereo not shown) : provide pKi
5.00 to 6.00

Item NCCC(C(=O)Nc1ccc2[nH]nc(NC(=O)c3ccc(Br)cc3)c2c1)c1ccc(Cl)c(Cl)c1 (stereo not shown) : provide pKi
> 6.00

Item COc1ccccc1C(CCN)C(=O)Nc1ccc2[nH]ncc2c1 (stereo not shown) [Compound I-1005] : provide pKi
> 6.00

====

Each record here notes measured Ki.
Sequence of the target: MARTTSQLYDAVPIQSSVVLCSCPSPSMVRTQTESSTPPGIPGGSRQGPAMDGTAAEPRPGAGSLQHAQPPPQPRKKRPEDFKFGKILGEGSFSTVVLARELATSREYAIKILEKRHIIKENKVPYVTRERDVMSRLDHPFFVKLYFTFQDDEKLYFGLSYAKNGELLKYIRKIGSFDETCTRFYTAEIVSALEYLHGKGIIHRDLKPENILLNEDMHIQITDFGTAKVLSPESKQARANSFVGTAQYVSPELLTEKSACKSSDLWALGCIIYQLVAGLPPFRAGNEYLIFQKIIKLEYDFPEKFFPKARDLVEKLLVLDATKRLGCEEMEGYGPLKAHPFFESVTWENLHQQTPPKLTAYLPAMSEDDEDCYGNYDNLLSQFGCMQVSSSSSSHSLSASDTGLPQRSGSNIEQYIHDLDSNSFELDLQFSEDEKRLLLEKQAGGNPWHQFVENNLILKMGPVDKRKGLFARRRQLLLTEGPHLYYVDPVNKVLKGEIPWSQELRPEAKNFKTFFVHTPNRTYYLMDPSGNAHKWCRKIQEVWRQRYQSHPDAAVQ

Recorded Ki, per entry:
NCCC(C(=O)Nc1ccc2[nH]nc(NC(=O)c3cccc(OC(F)(F)F)c3)c2c1)c1ccc(Cl)c(Cl)c1 (stereo not drawn) | > 3000 nM
NCCC(C(=O)Nc1ccc2[nH]nc(NC(=O)c3ccccc3)c2c1)c1ccc(Cl)c(Cl)c1 (stereo not drawn) | < 1000 nM

Item CNc1n[nH]c2ccc(NC(=O)C(CCN)c3ccccc3OC)cc12 (stereo not drawn) : provide Ki
> 3000 nM

Item NCCC(C(=O)Nc1ccc2[nH]nc(NCc3ccccc3)c2c1)c1ccc(Cl)c(Cl)c1 (stereo not drawn) : provide Ki
1000 to 3000 nM

Item NCCC(C(=O)Nc1ccc2[nH]nc(-c3cccc(Cl)c3)c2c1)c1ccc(Cl)c(Cl)c1 (stereo not drawn) : provide Ki
< 1000 nM

Item CC(C)c1cccc(-c2n[nH]c3ccc(NC(=O)C(CCN)c4ccc(Cl)c(Cl)c4)cc23)c1 (stereo not drawn) : provide Ki
> 3000 nM

Item Cc1cccc(-c2n[nH]c3ccc(NC(=O)C(CCN)c4ccc(Cl)c(Cl)c4)cc23)c1 (stereo not drawn) : provide Ki
< 1000 nM

Item NCCC(C(=O)Nc1ccc2[nH]nc(NC(=O)COc3ccccc3)c2c1)c1ccccc1 (stereo not drawn) : provide Ki
> 3000 nM

Item NCCC(C(=O)Nc1ccc2[nH]nc(NC(=O)c3cccs3)c2c1)c1ccc(Cl)c(Cl)c1 (stereo not drawn) : provide Ki
< 1000 nM
